- Test system: MDA-MB-231 breast
- PROTOCOL: NCI tumour cell line growth inhibition, 48 h
PARAMETER: TGI

# annotated cases, reported TGI shown
> print(dat)
                                   compound    measured.target  observed
1  O=C(O)C1C2CCC(O2)C1C(=O)NCc1cccnc1 (centres undefined)  MDA-MB-231 breast  > 100 µM
2  Cc1ccc(O)cc1 (tested in a mixture with another compound)  MDA-MB-231 breast  > 100 µM
3              CN(C)C1(c2cc3ccccc3s2)CCCCC1  MDA-MB-231 breast  > 100 µM

Please look at the following compound next.
Query: Which TGI value belongs to CCSc1[nH]c(NC(=NC(C)C)NC(=O)c2ccccc2)c(C(N)=O)c1C(N)=O ?
Result: > 10 µM

====

List of TGI values.
- System: RPMI-8226 leukemia
- PROTOCOL: NCI tumour cell line growth inhibition, 48 h
Dear colleague, please return just the value in µM, with no unit written.

The examples below pair each entry with its known result.
> print(dat)
                                   compound     measured.target  parameter  units  observed
1  CCOC(=O)CCC(C(=O)OCC)n1nnc2ccc(Nc3c(C)[n+]([O-])c4cc(F)c(OCC)cc4[n+]3[O-])cc21 (stereo not given)  RPMI-8226 leukemia        TGI     µM      54.3
2  CCOC(=O)C1=C(C)N(c2ccc(Cl)cc2)C2(O)C=CC(Nc3ccc(Cl)cc3)=C3C(=O)N(c4ccccc4)C(=O)C312 (stereo not given)  RPMI-8226 leukemia        TGI     µM      4.13

Query: Tell me the measured TGI of CNC(=O)c1cc(Oc2ccc3nc(NC(=O)Nc4cc(C(F)(F)F)cc(C(F)(F)F)c4)sc3c2)ccn1 , please.
Result: 3.81

Query: Can you share its TGI? I mean this compound: Cc1cc2nc(CC(C(F)(F)F)C(F)(F)F)oc2cc1C
Result: 1.61

Query: I would be grateful if you could share the reported TGI for CN(C)CCNC(=O)c1cccc2[nH]c(-c3ccc(Cl)cc3)nc12 .
Result: 8.78

====

In this section, each of the compounds is paired with its reported TGI.
- Test system: SF-268 CNS
- PROTOCOL: NCI tumour cell line growth inhibition, 48 h

> print(dat)
                                   compound  observed
1  Cc1ccc(O)cc1 (tested in a mixture with another compound)  > 100 µM
2                  NCCN(CCN)/[N+]([O-])=N/O  > 100 µM

Now take the following compound into account.
Query: TGI; subject: O=[N+]([O-])c1ccc2c(N=Nc3ccc4ccccc4c3O)c(O)cc(S(=O)(=O)O)c2c1
Result: 63.9 µM

====

- System: KM12 colon
- PROTOCOL: NCI tumour cell line growth inhibition, 48 h
PARAMETER: TGI

See these solved cases before continuing.
> print(dat)
                                   compound  parameter  observed
1  C=CCn1c(=O)c(C(=O)NC(=O)OCC)cn(C2CCCCC2)c1=O        TGI  > 100 µM
2  NCCCCCCCCCn1c2c(c3ccccc3c1=O)C(=O)c1ccccc1-2        TGI   22.2 µM
3  O=[N+]([O-])c1ccc2c(N=Nc3ccc4ccccc4c3O)c(O)cc(S(=O)(=O)O)c2c1        TGI  > 100 µM

Query: Name the recorded TGI for CN1c2ccccc2S(=O)(=O)n2c(COc3ccccc3)nnc21 .
Result: > 100 µM

Query: Would you kindly share the measured TGI for Clc1ccc(Nc2ncnc3c2sc2ncccc23)c(Cl)c1 ?
Result: > 100 µM

Query: What value of TGI has been reported for the following compound? COC(=O)[C@@H](NC(=O)c1ccc(CNC(=O)/C(C)=C/c2ccccc2)cc1)C(C)C
Result: > 100 µM

Query: For CC1=C(C(=O)NCCCN(CCO)CCO)CC(C(=O)NCCCN(CCO)CCO)=C(C)N1 , what is its reported TGI?
Result: > 100 µM

Query: Returns the measured TGI for the input compound. Input: N#Cc1c(O)c(C=O)c(=O)n2c1[nH]c1ccccc12
Result: > 100 µM

Query: For COc1cc(OC)c(/C=C/C(=O)c2c(O)cc(OC)c(C3CCN(C)CC3)c2OC)c(OC)c1 , what is its reported TGI?
Result: 3.38 µM

Query: Which TGI value is on record for c1ccc(Sc2nc(Sc3ccccc3)nc(Sc3ccccc3)n2)cc1 ?
Result: 29.4 µM

Query: Given the compound C[C@H]1CCC2C(CN3CCCCC3)C(=O)OC2[C@]2(C)C(=O)CC(N3CCCCC3)C12O (some centres not stated) , what is its reported TGI?
Result: 12.3 µM

Query: // query TGI value for entry CCOC(=O)CCC(C(=O)OCC)n1nnc2ccc(Nc3c(C)[n+]([O-])c4cc(F)c(OCC)cc4[n+]3[O-])cc21 (configuration not stated)
Result: > 100 µM

Query: # lookup: TGI of CC(=O)OC12OC(C)(C3C(=O)N(c4ccccc4)C(=O)C31)N(c1ccccc1)C2=O (configuration not stated)
Result: > 100 µM

Query: So what's the measured TGI for this one? O=C(O)c1c[nH]c2c(ccc3[nH]cc(C(=O)O)c(=O)c32)c1=O
Result: > 100 µM

Query: Looking for the measured TGI of O=C(O)C1C2CCC(O2)C1C(=O)NCc1cccnc1 (configuration not stated) , can you help?
Result: > 100 µM

Query: Requested read-out: TGI. Entry: NCCN(CCN)/[N+]([O-])=N/O
Result: > 100 µM
